Measured pIC50, listed per entry.
# target desc: UniProt:P35968
# Sequence (P35968 whole entry): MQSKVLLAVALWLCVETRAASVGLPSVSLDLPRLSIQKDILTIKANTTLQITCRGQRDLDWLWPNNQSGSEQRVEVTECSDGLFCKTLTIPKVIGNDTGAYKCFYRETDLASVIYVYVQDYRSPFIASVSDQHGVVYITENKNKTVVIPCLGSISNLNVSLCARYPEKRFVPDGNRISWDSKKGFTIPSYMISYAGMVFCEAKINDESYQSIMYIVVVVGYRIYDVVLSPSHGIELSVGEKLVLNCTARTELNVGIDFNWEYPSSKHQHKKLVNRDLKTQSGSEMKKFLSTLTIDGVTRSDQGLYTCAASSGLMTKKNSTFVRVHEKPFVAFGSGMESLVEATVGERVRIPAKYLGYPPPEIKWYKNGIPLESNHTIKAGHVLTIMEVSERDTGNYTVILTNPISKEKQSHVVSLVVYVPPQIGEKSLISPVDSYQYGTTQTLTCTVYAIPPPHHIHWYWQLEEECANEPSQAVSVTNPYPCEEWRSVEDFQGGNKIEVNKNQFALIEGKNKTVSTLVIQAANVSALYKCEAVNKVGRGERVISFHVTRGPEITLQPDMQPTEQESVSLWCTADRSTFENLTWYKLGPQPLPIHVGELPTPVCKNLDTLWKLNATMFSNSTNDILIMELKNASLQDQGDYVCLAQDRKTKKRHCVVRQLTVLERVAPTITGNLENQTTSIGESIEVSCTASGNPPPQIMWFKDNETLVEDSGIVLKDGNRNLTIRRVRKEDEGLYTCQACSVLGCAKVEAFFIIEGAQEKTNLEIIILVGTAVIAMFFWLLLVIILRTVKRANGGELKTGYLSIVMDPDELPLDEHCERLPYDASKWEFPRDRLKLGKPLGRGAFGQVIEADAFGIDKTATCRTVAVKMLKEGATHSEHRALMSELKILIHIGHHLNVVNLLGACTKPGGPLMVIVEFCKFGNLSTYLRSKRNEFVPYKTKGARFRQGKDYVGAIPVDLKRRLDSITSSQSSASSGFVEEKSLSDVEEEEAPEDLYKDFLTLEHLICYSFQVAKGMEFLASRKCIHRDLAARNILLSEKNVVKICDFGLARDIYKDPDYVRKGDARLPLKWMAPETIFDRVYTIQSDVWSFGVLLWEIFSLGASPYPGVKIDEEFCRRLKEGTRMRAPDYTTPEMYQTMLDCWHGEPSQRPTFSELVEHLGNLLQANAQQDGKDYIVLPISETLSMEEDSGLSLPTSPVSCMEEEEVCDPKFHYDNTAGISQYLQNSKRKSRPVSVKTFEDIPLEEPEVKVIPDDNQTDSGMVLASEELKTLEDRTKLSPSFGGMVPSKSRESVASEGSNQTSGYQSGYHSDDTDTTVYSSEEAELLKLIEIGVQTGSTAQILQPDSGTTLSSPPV
# assay overview: Inhibition of VEGFR2 (unknown origin) incubated for 10 mins followed by kinase substrate addition and measured after 30 mins by caliper mobility shift assay
pIC50: −log10 of the molar value.
measured property: pIC50

- mol: "Cc1ccc(NC(=O)Cn2cc(-c3ccc4c(N)n[nH]c4c3)cn2)cc1C(F)(F)F"
  measured property: "pIC50"
  numeric result: 8.57
- mol: "CS(=O)(=O)Cc1cccc(Nc2n[nH]c3cc(-c4cnn(CC(=O)Nc5ccc(Cl)c(C(F)(F)F)c5)c4)ccc23)c1"
  measured property: "pIC50"
  numeric result: 6.84
- mol: "Cn1cc(Nc2n[nH]c3cc(-c4cnn(CC(=O)Nc5ccc(Cl)c(C(F)(F)F)c5)c4)ccc23)cn1"
  measured property: "pIC50"
  numeric result: 6.66
- mol: "Cc1ccc(NC(=O)Cn2nc(C)c(-c3ccc4c(NC(=O)C5CC5)n[nH]c4c3)c2C)cc1C(F)(F)F"
  measured property: "pIC50"
  numeric result: 6.51
- mol: "Cn1cc2ccc(Nc3n[nH]c4cc(-c5cnn(CC(=O)Nc6ccc(Cl)c(C(F)(F)F)c6)c5)ccc34)cc2n1"
  measured property: "pIC50"
  numeric result: 6.60
- mol: "Cc1ccc(NC(=O)Cn2cc(-c3ccc4c(NC(=O)C5CCN(C)CC5)n[nH]c4c3)cn2)cc1C(F)(F)F"
  measured property: "pIC50"
  numeric result: 7.96
- mol: "Cc1ccc(NC(=O)Cn2cc(-c3ccc4c(NC(=O)C5CCCC5)n[nH]c4c3)cn2)cc1C(F)(F)F"
  measured property: "pIC50"
  numeric result: 7.82
- mol: "Nc1n[nH]c2cc(-c3cnn(CC(=O)Nc4cccc(C(F)(F)F)c4)c3)ccc12"
  measured property: "pIC50"
  numeric result: 8.13
- mol: "CCNc1n[nH]c2cc(-c3cnn(CC(=O)Nc4ccc(C)c(C(F)(F)F)c4)c3)ccc12"
  measured property: "pIC50"
  numeric result: 7.42
- mol: "CC(=O)Nc1n[nH]c2cc(-c3cnn(CC(=O)Nc4ccc(C)c(C(F)(F)F)c4)c3)ccc12"
  measured property: "pIC50"
  numeric result: 8.80

---

# Test system: GES1
# assay overview: Cytotoxicity against human GES-1 cells assessed as inhibition of cell growth incubated for 72 hrs by MTT assay
# Format: cell-based
# particulars: GES1, 72 h

- mol: "Cc1ccc(NC(=O)Cn2cc(-c3ccc4c(NC(=O)C(C)C)n[nH]c4c3)cn2)cc1C(F)(F)F"
  target desc: "GES1"
  IC50: "> 100 µM"
- mol: "Cc1ccc(NC(=O)Cn2cc(-c3ccc4c(NC(=O)C5CC5)n[nH]c4c3)nn2)cc1C(F)(F)F"
  target desc: "GES1"
  IC50: "> 100 µM"
- mol: "Cc1ccc(NC(=O)Cc2ccc(-c3ccc4c(NC(=O)C5CC5)n[nH]c4c3)cc2)cc1C(F)(F)F"
  target desc: "GES1"
  IC50: "> 100 µM"
